Listing: Plant response rating, Soybean of selected molecules
Tested on: soybean (Glycine max)
test name: Test C greenhouse herbicide test, pre- and postemergence
Format: in vivo
protocol conditions: Preemergence, 62 g ai/ha; scale 0 to 100, 0 is no effect, 100 is complete control
Source text: […]
Answer with the value's number alone.

compound structure string | test system | Plant response rating, Soybean
CCCC(=O)Oc1c(C)nn(C)c(=O)c1-c1c(C)sc2ccc(C)cc12 | soybean (Glycine max) | 0
CCc1sc2ccc(C)cc2c1-c1c(O)c(C)nn(C)c1=O | soybean (Glycine max) | 0
CCc1ccc2ccccc2c1-c1c(O)c(C)nn(C)c1=O | soybean (Glycine max) | 10

Query: Plant response rating, Soybean; subject: Cc1ccc2sc(C)c(-c3c(OC(=O)OC(C)C)c(C)nn(C)c3=O)c2c1 0

Another molecule: Cc1ccc2ccccc2c1-c1c(O)c(I)nn(C)c1=O 0

Another molecule: COC(=O)Oc1c(OC)nn(C)c(=O)c1-c1c(C)ccc2ccccc12 10

Another molecule: CC(=O)Oc1c(Cl)nn(C)c(=O)c1-c1c(C)sc2ccc(C(F)(F)F)cc12 5
